- tested system: T1, human glucagon receptor (human, UniProt P47871 26-477)
- T1 construct: whole, on cells; also called hGCGR; hGcgR
- T1 sequence (P47871 26-477): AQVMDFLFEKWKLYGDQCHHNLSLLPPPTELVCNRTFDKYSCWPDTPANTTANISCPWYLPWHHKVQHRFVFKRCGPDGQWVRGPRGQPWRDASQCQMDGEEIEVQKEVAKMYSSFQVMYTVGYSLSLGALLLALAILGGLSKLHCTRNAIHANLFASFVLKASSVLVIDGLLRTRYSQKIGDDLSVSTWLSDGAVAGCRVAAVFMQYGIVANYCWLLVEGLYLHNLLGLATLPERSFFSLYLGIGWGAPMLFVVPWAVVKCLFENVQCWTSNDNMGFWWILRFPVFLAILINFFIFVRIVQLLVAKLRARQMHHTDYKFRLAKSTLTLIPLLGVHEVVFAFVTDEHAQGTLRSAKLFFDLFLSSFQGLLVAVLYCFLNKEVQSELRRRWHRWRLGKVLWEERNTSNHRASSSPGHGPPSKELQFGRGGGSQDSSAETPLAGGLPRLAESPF
- protocol details: SPA competition vs [125I]-Gcg, hGcgR membranes
*1 amine or outer side, *2 acyl side, *3 side chain or, on linkers, in order; H or OH if unused. Where no end group is shown, it is not given here. Side-chain parts run from the residue outwards. [ ]: non-standard residue; d: D form. The star is where a group is joined. αMePhe(2-F) = C[C@](N)(Cc1ccccc1F)C(=O)O; γGlu = O=C(O)[C@H](CCC(=O)[*:2])N[*:1]; C14 diacid = O=C(O)CCCCCCCCCCCCC(=O)*; αMeY = C[C@](N)(Cc1ccc(O)cc1)C(=O)O; αMeL = CC(C)C[C@](C)(N)C(=O)O; Nle = CCCC[C@H](N)C(=O)O; Orn = NCCC[C@H](N)C(=O)O; AEEA = NCCOCCOCC(=O)O; Aib = CC(C)(N)C(=O)O
What pKi was measured for each of the following?
Numbers only, as −log10 of the molar value.

Please review the entries below; each comes with its answer.
binder	pKi
YXEGTXTSDYXIXLDXKAQXEFIXXLIEGGKSSGAPPPS (Aib2, αMeF(2F)6, αMeS11, αMeL13, Orn16, K17(Z1), Aib20, D-Glu24, αMeY25, K31(Z1), C-term NH2; Z1=AEEA2-(γ-Glu)-CO-(CH2)12-CO2H)	6.71
YXEGTXTSDXXIXLDXKAQXEFIXXLIKGGPSSGAPPPS (Aib2, αMeF(2F)6, 4Pal10, Aib11, αMeL13, Orn16, K17(Z1), Aib20, D-Glu24 (printed e), αMeY25, K28(Z1), C-term NH2; Z1=AEEA-(γ-Glu)-(10-(4-carboxyphenoxy)decanoyl))	6.62
Y[Aib]EGT[αMePhe(2-F)]TSD[Nle]SI[αMeL]LD[Orn]QAQ[Aib][Orn]FIK([AEEA-AEEA-γGlu-C14 diacid])[αMeY]LIK([AEEA-AEEA-γGlu-C14 diacid])GGPSSGAPPPS-NH2	7.42

Provide the reported pKi of each entry below, same order.
1. YXEGTXTSDXSIXLDXKAQXEFIXXLIEGGKSSGAPPPS (Aib2, αMeF(2F)6, 4Pal10, αMeL13, Orn16, K17(Z1), Aib20, D-Glu24, αMeY25, K31(Z1), C-term NH2; Z1=AEEA3-(γ-Glu)-CO-(CH2)14-CH3)
2. YXEGTXTSDXXIXLDXQAQXEFIKXLIKGGPSSGAPPPS (Aib2, αMeF(2F)6, 4Pal10, Aib11, αMeL13, Orn16, Aib20, K24(Z1), αMeY25, K28(Z1), C-term NH2; Z1=AEEA3-(γ-Glu)-(10-(4-carboxyphenoxy)decanoyl))
3. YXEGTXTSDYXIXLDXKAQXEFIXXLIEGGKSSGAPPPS (Aib2, αMeF(2F)6, Aib11, αMeL13, Orn16, K17(Z1), Aib20, D-Glu24, αMeY25, K31(Z1), C-term NH2; Z1=AEEA2-(γ-Glu)-CO-(CH2)12-CO2H)
4. YXEGTXTSDKSIXLDXKAQXEXIXXLIEGGPSSGAPPPS (Aib2, αMeF(2F)6, K10(Z1), αMeL13, Orn16, K17(Z1), Aib20, αMeF22, D-Glu24, αMeY25, C-term NH2; Z1=AEEA2-(γ-Glu)-CO-(CH2)10-CH3)

Response given:
9.21
6.12
7.38
7.64

Challenge: Report pKi for YXEGTXTSDXXIXLDXQAQXXFIKXLIKGGPSSGAPPPS (Aib2, αMeF(2F)6, 4Pal10, Aib11, αMeL13, Orn16, Aib20, Orn21, K24(Z1), αMeY25, K28(Z1), C-term NH2; Z1=PEG5-(γ-Glu)-CO-(CH2)12-CO2H) please.
Response given: 6.68
